// provenance: patent US20130123254A1

experiment: Body temperature test; type: in vivo; details: rat, body temperature at 2 h, read-out: BT test MED (rat)
Assign minimal effective dose to each entry below.

# input compound: `CC1(C)CN(c2ccc(C#Cc3cccc(F)c3)cn2)C(=O)O1` ; wanted: its minimal effective dose
0.3 mg/kg

# input compound: `CN1C(C)(C)CN(c2ccc(C#Cc3ccccc3)cn2)S1(=O)=O` ; wanted: its minimal effective dose
0.3 mg/kg

# input compound: `CN1C(=O)N(c2ccc(C#Cc3ccccc3)cn2)[C@@H]2CCC[C@@H]21` ; wanted: its minimal effective dose
0.1 mg/kg

# input compound: `C(#Cc1cnc2nc(N3CCOCC3)nn2c1)c1ccccc1` ; wanted: its minimal effective dose
3 mg/kg

# input compound: `CC1(C)CCN(c2ccc(C#Cc3ccccc3)cn2)C(=O)C1` ; wanted: its minimal effective dose
0.1 mg/kg

# input compound: `CN(C(=O)c1ccc(C#Cc2cc(F)ccc2F)cn1)C(C)(C)C` ; wanted: its minimal effective dose
0.1 mg/kg

# input compound: `CC1(C)CN(c2ccc(C#Cc3ccccc3)cn2)C(=O)O1` ; wanted: its minimal effective dose
1 mg/kg

# input compound: `CO[C@@H]1C(=O)N(c2ncc(C#Cc3cccc(F)c3)cn2)CC1(C)C` ; wanted: its minimal effective dose
0.3 mg/kg

# input compound: `CN1C(=O)N(c2ccc(C#Cc3cncc(Cl)c3)cn2)CC1(C)C` ; wanted: its minimal effective dose
1 mg/kg
